system: L6; assay: Cytotoxicity against rat L6 cells; format: cell-based
Activity reference
# output: bare number, implied unit µM

Worked cases, answers included:
[[record]]
compoundstructurestring = "O=C(Cn1ccc(=O)[nH]c1=O)NCCCCNC(c1ccccc1)(c1ccccc1)c1ccccc1"
testedsystem = "L6"
readoutvalue = 42.7

[[record]]
compoundstructurestring = "O=C(Cn1ccc(=O)[nH]c1=O)NCCNC(c1ccccc1)(c1ccccc1)c1ccccc1"
testedsystem = "L6"
readoutvalue = 53

[[record]]
compoundstructurestring = "CC(C)(C)[Si](OCCCNC(=O)Cn1ccc(=O)[nH]c1=O)(c1ccccc1)c1ccccc1"
testedsystem = "L6"
readoutvalue = 88.9


Input line: Identify the measured Activity of `O=c1ccn(CCCCCCNC(c2ccccc2)(c2ccccc2)c2ccccc2)c(=O)[nH]1` for L6.
Output line: 40

Input line: Identify the measured Activity of `O=C(Cn1ccc(=O)[nH]c1=O)NCCCNCCCNC(c1ccccc1)(c1ccccc1)c1ccccc1` for L6.
Output line: 76.7

Input line: Identify the measured Activity of `O=c1ccn(CCCCCNC(c2ccccc2)(c2ccccc2)c2ccccc2)c(=O)[nH]1` for L6.
Output line: 39

Input line: Identify the measured Activity of `O=C(Cn1ccc(=O)[nH]c1=O)NCCNCCNC(c1ccccc1)(c1ccccc1)c1ccccc1` for L6.
Output line: 52.7

Input line: Identify the measured Activity of `O=C(Cn1ccc(=O)[nH]c1=O)NCCCNC(c1ccccc1)(c1ccccc1)c1ccccc1` for L6.
Output line: 102.2

Input line: Identify the measured Activity of `CC(C)(C)[Si](NCCCCCCn1ccc(=O)[nH]c1=O)(c1ccccc1)c1ccccc1` for L6.
Output line: 18

Input line: Identify the measured Activity of `CC(C)(C)[Si](OCCCCNC(=O)Cn1ccc(=O)[nH]c1=O)(c1ccccc1)c1ccccc1` for L6.
Output line: 33.4

###

Ki reference
Biological target: dUTP pyrophosphatase (Plasmodium falciparum 3D7)
Sequence (Q8II92 whole entry): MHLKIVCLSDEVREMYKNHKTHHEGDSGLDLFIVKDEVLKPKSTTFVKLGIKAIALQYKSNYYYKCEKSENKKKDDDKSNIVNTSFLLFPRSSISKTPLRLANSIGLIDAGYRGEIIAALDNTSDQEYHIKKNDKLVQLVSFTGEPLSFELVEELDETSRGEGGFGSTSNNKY

[[record]]
compoundstructurestring = "O=C(Cn1ccc(=O)[nH]c1=O)NCCNCCNC(c1ccccc1)(c1ccccc1)c1ccccc1"
readoutlabel = "Ki"
readoutvalue = "> 1000 µM"


Below: the item to evaluate.
Input line: Query (compound): `O=C(Cn1ccc(=O)[nH]c1=O)NCCCCNC(c1ccccc1)(c1ccccc1)c1ccccc1` ; field requested: Ki
Output line: > 1000 µM

###

Selectivity Index reference
test: Selectivity ratio of human dUTPase to Plasmodium falciparum dUTPase

Worked cases, answers included:
[[record]]
compoundstructurestring = "O=C(Cn1ccc(=O)[nH]c1=O)NCCCCNC(c1ccccc1)(c1ccccc1)c1ccccc1"
readoutvalue = "> 1"

[[record]]
compoundstructurestring = "CC(C)(C)[Si](OCCCCNC(=O)Cn1ccc(=O)[nH]c1=O)(c1ccccc1)c1ccccc1"
readoutvalue = "> 1"

[[record]]
compoundstructurestring = "O=C(Cn1ccc(=O)[nH]c1=O)NCCCNCCCNC(c1ccccc1)(c1ccccc1)c1ccccc1"
readoutvalue = "> 1"


Input line: Query (compound): `O=c1ccn(CCCCCCNC(c2ccccc2)(c2ccccc2)c2ccccc2)c(=O)[nH]1` ; field requested: Selectivity Index
Output line: > 555

Input line: Query (compound): `CC(C)(C)[Si](NCCCCCCn1ccc(=O)[nH]c1=O)(c1ccccc1)c1ccccc1` ; field requested: Selectivity Index
Output line: > 117

###

Selectivity Index reference
assay: Selectivity ratio of human dUTPase to Plasmodium falciparum dUTPase

Input line: Query (compound): `O=C(Cn1ccc(=O)[nH]c1=O)NCCCNC(c1ccccc1)(c1ccccc1)c1ccccc1` ; field requested: Selectivity Index
Output line: > 43

Input line: Query (compound): `O=c1ccn(CCCCCNC(c2ccccc2)(c2ccccc2)c2ccccc2)c(=O)[nH]1` ; field requested: Selectivity Index
Output line: > 232

Input line: Query (compound): `O=C(Cn1ccc(=O)[nH]c1=O)NCCNC(c1ccccc1)(c1ccccc1)c1ccccc1` ; field requested: Selectivity Index
Output line: > 26

Input line: Query (compound): `O=C(Cn1ccc(=O)[nH]c1=O)NCCNCCNC(c1ccccc1)(c1ccccc1)c1ccccc1` ; field requested: Selectivity Index
Output line: > 1

Input line: Query (compound): `O=C(Cn1ccc(=O)[nH]c1=O)N(CCO)CCNC(c1ccccc1)(c1ccccc1)c1ccccc1` ; field requested: Selectivity Index
Output line: > 1

Input line: Query (compound): `CC(C)(C)[Si](OCCCNC(=O)Cn1ccc(=O)[nH]c1=O)(c1ccccc1)c1ccccc1` ; field requested: Selectivity Index
Output line: > 1

###

Target: dUTP pyrophosphatase (Plasmodium falciparum 3D7, UniProt Q8II92)
Sequence (Q8II92 whole entry): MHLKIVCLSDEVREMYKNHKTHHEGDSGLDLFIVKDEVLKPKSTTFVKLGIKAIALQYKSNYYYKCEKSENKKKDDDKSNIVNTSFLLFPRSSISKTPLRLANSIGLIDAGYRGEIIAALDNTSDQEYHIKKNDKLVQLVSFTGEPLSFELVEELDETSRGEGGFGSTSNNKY
Ki reference

[[record]]
compoundstructurestring = "O=C(Cn1ccc(=O)[nH]c1=O)NCCNC(c1ccccc1)(c1ccccc1)c1ccccc1"
readoutvalue = "37.3 µM"


Input line: Query (compound): `CC(C)(C)[Si](OCCCNC(=O)Cn1ccc(=O)[nH]c1=O)(c1ccccc1)c1ccccc1` ; field requested: Ki
Output line: > 1000 µM

Input line: Query (compound): `O=C(Cn1ccc(=O)[nH]c1=O)NCCCNC(c1ccccc1)(c1ccccc1)c1ccccc1` ; field requested: Ki
Output line: 23.1 µM

Input line: Query (compound): `CC(C)(C)[Si](OCCCCNC(=O)Cn1ccc(=O)[nH]c1=O)(c1ccccc1)c1ccccc1` ; field requested: Ki
Output line: > 1000 µM

Input line: Query (compound): `O=C(Cn1ccc(=O)[nH]c1=O)NCCCNCCCNC(c1ccccc1)(c1ccccc1)c1ccccc1` ; field requested: Ki
Output line: > 1000 µM

Input line: Query (compound): `O=C(Cn1ccc(=O)[nH]c1=O)N(CCO)CCNC(c1ccccc1)(c1ccccc1)c1ccccc1` ; field requested: Ki
Output line: > 1000 µM

Input line: Query (compound): `CC(C)(C)[Si](NCCCCCCn1ccc(=O)[nH]c1=O)(c1ccccc1)c1ccccc1` ; field requested: Ki
Output line: 8.5 µM
